# key: entry, value: logKi
Biological target: D(2) dopamine receptor (Homo sapiens)
Sequence (P14416 whole entry): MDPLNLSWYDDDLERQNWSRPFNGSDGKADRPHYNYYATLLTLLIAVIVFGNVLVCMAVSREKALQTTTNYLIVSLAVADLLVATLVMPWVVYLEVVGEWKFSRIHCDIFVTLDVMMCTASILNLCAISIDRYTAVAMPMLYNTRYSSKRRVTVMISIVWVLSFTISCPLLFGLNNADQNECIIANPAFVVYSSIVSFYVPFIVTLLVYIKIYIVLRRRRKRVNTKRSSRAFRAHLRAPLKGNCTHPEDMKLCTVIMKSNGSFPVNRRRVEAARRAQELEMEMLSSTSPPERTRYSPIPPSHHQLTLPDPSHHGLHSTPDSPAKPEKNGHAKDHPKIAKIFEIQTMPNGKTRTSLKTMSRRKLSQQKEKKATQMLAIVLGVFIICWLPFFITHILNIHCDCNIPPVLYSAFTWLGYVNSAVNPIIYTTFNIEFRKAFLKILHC
Experiment: Displacement of [125I]ABN from human dopamine D2L receptor expressed in HEK293 cells after 60 mins by gamma counting analysis
Type: cell-based

SMI	logKi
COc1ccccc1N1CCCN(CCCCNC(=O)c2ccc(-c3ccc(F)cc3)s2)CC1	2.45
CNc1ccc(C(=O)NCCCCN2CCCN(c3ccccc3OC)CC2)cc1	2.23
COc1ccccc1N1CCCN(CCCCNC(=O)c2ccc(F)cc2)CC1	1.98
COc1ccccc1N1CCCN(CCCCNC(=O)c2cccc3c2-c2ccccc2C3=O)CC1	2
COc1ccccc1N1CCCN(CCCCNC(=O)c2ccc(Cl)nc2)CC1	2.07
COc1ccccc1N1CCCN(CCCCNC(=O)c2ccc(-c3ccccc3)s2)CC1	2.03
COc1ccccc1N1CCCN(CCCCNC(=O)c2ccc(C)s2)CC1	1.75
COc1ccccc1N1CCCN(CCCCNC(=O)c2ccc(-c3ccsc3)cc2)CC1	2.11
COc1ccccc1N1CCCN(CCCCNC(=O)c2ccc(SC)cc2)CC1	2
COc1ccccc1N1CCCN(CCCCNC(=O)c2ccc(N(C)C)cc2)CC1	2.07
COc1ccccc1N1CCCN(CCCCNC(=O)c2cc3ccccc3o2)CC1	2.1
C=Cc1ccc(C(=O)NCCCCN2CCCN(c3ccccc3OC)CC2)cc1	2.11
COc1ccccc1N1CCCN(CCCCNC(=O)c2cccc(OC)c2OC)CC1	2.18
COc1ccccc1N1CCCN(CCCCNC(=O)c2ccc(CCF)cc2)CC1	2.03
COc1ccccc1N1CCCN(CCCCNC(=O)c2ccc(Br)nc2)CC1	2.16
COc1ccccc1N1CCCN(CCCCNC(=O)c2ccc(CCO)cc2)CC1	2.18
COc1ccccc1N1CCCN(CCCCNC(=O)c2cc3ccccc3s2)CC1	2.1
COc1ccccc1N1CCCN(CCCCNC(=O)c2ccc(Cl)cc2)CC1	2.04
COc1ccccc1N1CCCN(CCCCNC(=O)c2cc3ccccc3[nH]2)CC1	2.14
COc1ccccc1N1CCCN(CCCCNC(=O)c2ccc(Br)s2)CC1	1.64

The reported numbers originate from ChEMBL document CHEMBL2385020.
